# condition-notes: in isopropanol, 323.15 K
outcome-measure: solubility (mole fraction)
// no unit string in output, number only

QUERY: Sample c1cnc2[nH]ccc2c1 — what was its solubility (mole fraction)?
RESULT: 0.36

---

# condition-notes: in isopropanol, 318.15 K
outcome-measure: solubility (mole fraction)

QUERY: Sample c1cnc2[nH]ccc2c1 — what was its solubility (mole fraction)?
RESULT: 0.336

---

# condition-notes: in isopropanol, 288.15 K
outcome-measure: solubility (mole fraction)

QUERY: Sample c1cnc2[nH]ccc2c1 — what was its solubility (mole fraction)?
RESULT: 0.231

---

# condition-notes: in ethanol, 323.15 K
outcome-measure: solubility (mole fraction)
// no unit string in output, number only

QUERY: Sample c1cnc2[nH]ccc2c1 — what was its solubility (mole fraction)?
RESULT: 0.356

---

# condition-notes: in ethanol, 288.15 K
outcome-measure: solubility (mole fraction)

QUERY: Sample c1cnc2[nH]ccc2c1 — what was its solubility (mole fraction)?
RESULT: 0.191

---

# condition-notes: in ethyl acetate, 288.15 K
outcome-measure: solubility (mole fraction)

QUERY: Sample c1cnc2[nH]ccc2c1 — what was its solubility (mole fraction)?
RESULT: 0.226

---

# condition-notes: in ethanol, 278.15 K
outcome-measure: solubility (mole fraction)
// no unit string in output, number only

QUERY: Sample c1cnc2[nH]ccc2c1 — what was its solubility (mole fraction)?
RESULT: 0.152

---

# condition-notes: in acetone, 308.15 K
outcome-measure: solubility (mole fraction)

QUERY: Sample c1cnc2[nH]ccc2c1 — what was its solubility (mole fraction)?
RESULT: 0.383

---

# condition-notes: in ethyl acetate, 318.15 K
outcome-measure: solubility (mole fraction)
// no unit string in output, number only

QUERY: Sample c1cnc2[nH]ccc2c1 — what was its solubility (mole fraction)?
RESULT: 0.324

---

# condition-notes: in THF, 298.15 K
outcome-measure: solubility (mole fraction)
// no unit string in output, number only

QUERY: Sample c1cnc2[nH]ccc2c1 — what was its solubility (mole fraction)?
RESULT: 0.419

---

# condition-notes: in acetonitrile, 288.15 K
outcome-measure: solubility (mole fraction)
// no unit string in output, number only

QUERY: Sample c1cnc2[nH]ccc2c1 — what was its solubility (mole fraction)?
RESULT: 0.124

---

# condition-notes: in n-hexane, 303.15 K
outcome-measure: solubility (mole fraction)
// no unit string in output, number only

QUERY: Sample c1cnc2[nH]ccc2c1 — what was its solubility (mole fraction)?
RESULT: 0.0279

---

# condition-notes: in n-propanol, 303.15 K
outcome-measure: solubility (mole fraction)
// no unit string in output, number only

QUERY: Sample c1cnc2[nH]ccc2c1 — what was its solubility (mole fraction)?
RESULT: 0.272

---

# condition-notes: in acetone, 293.15 K
outcome-measure: solubility (mole fraction)
// no unit string in output, number only

QUERY: Sample c1cnc2[nH]ccc2c1 — what was its solubility (mole fraction)?
RESULT: 0.322

---

# condition-notes: in isopropanol, 313.15 K
outcome-measure: solubility (mole fraction)

QUERY: Sample c1cnc2[nH]ccc2c1 — what was its solubility (mole fraction)?
RESULT: 0.315

---

# condition-notes: in isopropanol, 308.15 K
outcome-measure: solubility (mole fraction)
// no unit string in output, number only

QUERY: Sample c1cnc2[nH]ccc2c1 — what was its solubility (mole fraction)?
RESULT: 0.298
